The measured values listed here are drawn from the supplement of paper PMC11208160.

- Experiment Summary: recombinant UMI read abundance after kanamycin selection (control-corrected) (log10(CPM+1)); higher = more efficient recombination; extreme values may be limits of the assay; sequences stand for … in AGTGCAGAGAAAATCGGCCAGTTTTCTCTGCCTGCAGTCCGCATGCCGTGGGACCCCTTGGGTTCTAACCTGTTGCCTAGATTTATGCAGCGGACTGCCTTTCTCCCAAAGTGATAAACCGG…AGGTTGGTTTCACT; site = the 11-nt donor
Measurement Type: recombinant UMI read abundance (log10)
Reply briefly: the number, and no unit.

[[record]]
residue_codes = "TGGCTGCCATGGACCGGTTTTCCCGGTAATCCGTATTTGGT (site TGGCTGCCTAC)"
experimental_value = 0.0264


The sequence listed as CGATAATCATGGACCGGTTTTCCCGGTAATCCGTATTTGGT (site CGATAATCTAC) shows recombinant UMI read abundance (log10) equal to 2.74

The sequence listed as TGACTCACATGGACCGGTTTTCCCGGTAATCCGTATTTGAC (site TGACTCACTGT) shows recombinant UMI read abundance (log10) equal to 2.68

The sequence listed as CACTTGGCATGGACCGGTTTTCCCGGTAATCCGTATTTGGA (site CACTTGCCTTC) shows recombinant UMI read abundance (log10) equal to 0.407

The sequence listed as CACGGCCCATGGACCGGTTTTCCCGGTAATCCGTATTTGTA (site CACGGCCCTTA) shows recombinant UMI read abundance (log10) equal to 0.29

The sequence listed as TGTAGACCATGGACCGGTTTTCCCGGTAATCCGTATTTGAC (site TGTATACCTGT) shows recombinant UMI read abundance (log10) equal to 0

The sequence listed as TGCAATCCATGGACCGGTTTTCCCGGTAATCCGTATTTGAA (site CGCAATCCTTT) shows recombinant UMI read abundance (log10) equal to 0.257

The sequence listed as CGCGGTCCATGGACCGGTTTTCCCGGTAATCCGTATTTGCA (site CTCGGTCCTTG) shows recombinant UMI read abundance (log10) equal to 0

The sequence listed as GAGAACCCATGGACCGGTTTTCCCGGTAATCCGTATTTGGA (site GAGAACCCTTC) shows recombinant UMI read abundance (log10) equal to 0

The sequence listed as GCGCCTCCATGGACCGGTTTTCCCGGTAATCCGTATTTGGG (site GCGCCTCCTCC) shows recombinant UMI read abundance (log10) equal to 0.0195

The sequence listed as CGAGCGACATGGACCGGTTTTCCCGGTAATCCGTATTTGTT (site CGATCGACTAA) shows recombinant UMI read abundance (log10) equal to 0.0192

The sequence listed as CTAGTTGCATGGACCGGTTTTCCCGGTAATCCGTATTTGAC (site CTAGTATCTGT) shows recombinant UMI read abundance (log10) equal to 0.412

---

- Experiment Summary: recombinant barcode read abundance after kanamycin selection (control-corrected) (log10(CPM+1)); higher = more efficient recombination; sequences stand for … in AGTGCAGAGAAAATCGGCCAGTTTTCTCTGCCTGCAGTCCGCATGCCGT…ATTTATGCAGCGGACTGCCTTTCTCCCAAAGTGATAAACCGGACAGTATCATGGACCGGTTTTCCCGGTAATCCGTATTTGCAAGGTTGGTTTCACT; site = the 11-nt target
Attribute: recombinant barcode read abundance (log10)
Reply briefly: the number, and no unit.

Previously resolved entries follow.
[[record]]
residue_codes = "TAAGAATGATGGGTTCTAACCTGTTGCCTAG [TAAGAATCTAG_LTGcore_GA_RTGcore_CT] (site TAAGAATCTAG) (LTG core: GA, RTG core: CT)"
experimental_value = 0.0742

[[record]]
residue_codes = "TAAGAATCTTGGGTTCTAACCTGTTGCCTAC [TAAGAATCTAG_LTGcore_CT_RTGcore_GT] (site TAAGAATCTAG) (LTG core: CT, RTG core: GT)"
experimental_value = 0.116

[[record]]
residue_codes = "CGGTCCCGTTGGGTTCTAACCTGTTGCCAAC [CGGTCCCCTTG_LTGcore_GT_RTGcore_GT] (site CGGTCCCCTTG) (LTG core: GT, RTG core: GT)"
experimental_value = 0.229


// next entry
The sequence listed as GGACACCCGTGGGTTCTAACCTGTTGCCTCG [GGACACCCTAG_LTGcore_CG_RTGcore_CG] (site GGACACCCTAG) (LTG core: CG, RTG core: CG) shows recombinant barcode read abundance (log10) equal to 0.314
